# Tested on: L1210 cells
# protocolSummary: Nucleoside transport inhibition assay: inhibition of 3H-thymidine uptake, with or without AGP or HSA
# Type: cell-based, murine
# measurementSetup: Mus musculus, L1210, 10 μM compound, +5 mg/ml AGP; read-out: % Inhibition of 3H-thymidine uptake, +5 mg/ml AGP
Measured inhibition at 10 µM, listed per entry.
experimentalReadout: inhibition at 10 µM (%)

• OCCN(CCO)c1nc(N2CCc3ccccc3C2)c2nc(N(CCO)CCO)nc(N3CCc4ccccc4C3)c2n1 = 69
• COc1ccc(CNc2nc(N(CCO)CCO)nc3c(NCc4ccc(OC)c(OC)c4)nc(N(CCO)CCO)nc23)cc1OC = 93
• CC(O)COc1nc(N2CCCCC2)c2nc(OCC(C)O)nc(N3CCCCC3)c2n1 (stereo not shown) = 69
• COc1ccc(CNc2nc(N(CCO)CCO)nc3c(NCc4ccc(OC)cc4)nc(N(CCO)CCO)nc23)cc1 = 89
